target: human mGlu8 receptor (Homo sapiens); construct: expressed in transfected cells; host or cells: AV12 cells, co-expressing rat EAAT1 and Galpha15; assay: FLIPR calcium assay for mGlu receptor selectivity, mGlu8 antagonist mode; format: cell-based; conditions: 12.5 μM; inhibition of EC90 glutamate response; read-out: mGlu8 % inhib. @12.5 μM
Sequence (O00222 34-908): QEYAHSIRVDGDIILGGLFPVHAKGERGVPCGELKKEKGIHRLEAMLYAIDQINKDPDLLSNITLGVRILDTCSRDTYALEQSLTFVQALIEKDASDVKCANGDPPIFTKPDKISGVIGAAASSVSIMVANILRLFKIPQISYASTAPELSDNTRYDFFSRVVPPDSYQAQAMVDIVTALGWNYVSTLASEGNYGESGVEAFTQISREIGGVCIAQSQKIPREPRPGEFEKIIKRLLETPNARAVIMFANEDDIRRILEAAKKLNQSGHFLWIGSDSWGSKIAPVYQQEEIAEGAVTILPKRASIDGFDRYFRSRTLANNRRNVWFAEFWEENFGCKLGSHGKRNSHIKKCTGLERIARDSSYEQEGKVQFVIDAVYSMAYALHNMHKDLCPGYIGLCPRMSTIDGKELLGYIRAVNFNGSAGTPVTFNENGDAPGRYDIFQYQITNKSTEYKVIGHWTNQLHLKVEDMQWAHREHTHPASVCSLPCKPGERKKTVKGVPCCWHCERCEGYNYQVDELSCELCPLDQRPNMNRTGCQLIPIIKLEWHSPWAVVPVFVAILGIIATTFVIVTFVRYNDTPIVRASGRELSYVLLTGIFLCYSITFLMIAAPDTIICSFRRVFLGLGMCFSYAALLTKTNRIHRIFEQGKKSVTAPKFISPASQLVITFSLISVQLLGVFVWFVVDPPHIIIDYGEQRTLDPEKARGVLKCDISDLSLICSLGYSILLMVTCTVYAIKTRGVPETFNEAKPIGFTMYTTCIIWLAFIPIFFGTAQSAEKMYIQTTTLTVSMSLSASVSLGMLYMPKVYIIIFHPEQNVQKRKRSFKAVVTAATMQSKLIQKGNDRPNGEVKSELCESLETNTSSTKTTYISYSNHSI
MEASURED_PARAMETER: inhibition at 12.5 µM
Quick note: number first, unit second.

If you can, please state the reported inhibition at 12.5 µM value of Cl.Cn1cnc(S[C@H]2[C@H]3[C@H](C(=O)O)[C@H]3[C@](N)(C(=O)O)[C@@H]2OCc2ccc(Cl)c(Cl)c2)n1 [Example 7, hydrochloride] .
46.7%

Reported inhibition at 12.5 µM, compound Cl.N[C@]1(C(=O)O)[C@@H]2[C@@H](C(=O)O)[C@@H]2[C@H](NC(=O)CO)[C@H]1OCc1ccc(Cl)c(Cl)c1 [Example 9, hydrochloride] : ____
13.3%

Reported inhibition at 12.5 µM, compound N[C@]1(C(=O)O)[C@@H]2[C@@H](C(=O)O)[C@@H]2[C@H](Sc2nc[nH]n2)[C@H]1OCc1ccc(Cl)c(Cl)c1 [Example 2] : ____
92.3%

Would you kindly share the measured inhibition at 12.5 µM for N[C@]1(C(=O)O)[C@@H]2[C@@H](C(=O)O)[C@@H]2[C@H](O)[C@H]1OCc1ccc(Cl)c(Cl)c1 [Example 1] ?
78.4%

Now let's try a different one.
For the compound CC(=O)N[C@H]1[C@H]2[C@H](C(=O)O)[C@H]2[C@](N)(C(=O)O)[C@@H]1OCc1ccc(Cl)c(Cl)c1 [Example 4] , what inhibition at 12.5 µM is on record?
23.4%

---

target: human mGlu4 receptor (Homo sapiens); construct: expressed in transfected cells; host or cells: AV12 cells, co-expressing rat EAAT1 and Galpha15; test: FLIPR calcium assay for mGlu receptor selectivity, mGlu4 antagonist mode; format: cell-based; conditions: inhibition of EC90 glutamate response, read-out: mGlu4 % inhib. @12.5 μM
Sequence (Q14833 33-912): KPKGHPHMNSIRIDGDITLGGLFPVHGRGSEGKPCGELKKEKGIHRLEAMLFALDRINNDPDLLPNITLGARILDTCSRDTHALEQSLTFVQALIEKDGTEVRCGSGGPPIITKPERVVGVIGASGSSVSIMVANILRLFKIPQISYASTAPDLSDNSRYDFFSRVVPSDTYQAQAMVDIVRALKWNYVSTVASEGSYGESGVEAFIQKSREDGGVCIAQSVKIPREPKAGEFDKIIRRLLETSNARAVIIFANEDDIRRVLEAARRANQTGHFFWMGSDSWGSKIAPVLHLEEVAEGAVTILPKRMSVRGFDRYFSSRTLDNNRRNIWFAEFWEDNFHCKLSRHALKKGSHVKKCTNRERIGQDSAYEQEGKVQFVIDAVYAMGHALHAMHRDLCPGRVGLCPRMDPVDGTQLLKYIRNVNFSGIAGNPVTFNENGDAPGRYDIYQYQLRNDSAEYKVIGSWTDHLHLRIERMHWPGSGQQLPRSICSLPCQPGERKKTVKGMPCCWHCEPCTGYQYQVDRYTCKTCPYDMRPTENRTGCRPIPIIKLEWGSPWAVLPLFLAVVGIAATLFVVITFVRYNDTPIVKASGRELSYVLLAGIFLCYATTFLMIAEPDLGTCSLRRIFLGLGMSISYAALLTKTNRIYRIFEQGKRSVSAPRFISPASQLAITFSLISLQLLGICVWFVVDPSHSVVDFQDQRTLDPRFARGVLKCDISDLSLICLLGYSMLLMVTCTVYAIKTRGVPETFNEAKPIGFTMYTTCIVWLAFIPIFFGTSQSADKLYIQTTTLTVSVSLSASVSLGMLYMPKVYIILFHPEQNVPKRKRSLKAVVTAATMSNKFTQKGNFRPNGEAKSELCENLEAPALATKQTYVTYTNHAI
Label condition met for high-side inhibition at 12.5 µM (at or above 30%) and condition not met for low-side inhibition at 12.5 µM (below it).

Say whether CC(=O)N[C@H]1[C@H]2[C@H](C(=O)O)[C@H]2[C@](N)(C(=O)O)[C@@H]1OCc1ccc(Cl)c(Cl)c1 shows inhibition at 12.5 µM of 30% or more.
condition not met

Now consider the entry below.
Is inhibition at 12.5 µM for N[C@]1(C(=O)O)[C@@H]2[C@@H](C(=O)O)[C@@H]2[C@H](Sc2nc[nH]n2)[C@H]1OCc1ccc(Cl)c(Cl)c1 at or above 30%?
condition met

---

test system: male NIH-Swiss mice; experiment: Forced-swim test in mice (mFST); assay type: in vivo, mouse; settings: i.p.; immobility time
MEASURED_PARAMETER: Maximal Decrease (1 − compound/control) * 100%
Quick note: unit goes after the number.

Solved entries (count: 5):
Bench note: what Maximal Decrease (1 − compound/control) * 100% did Cl.N[C@]1(C(=O)O)[C@@H]2[C@@H](C(=O)O)[C@@H]2[C@H](NC(=O)CO)[C@H]1OCc1ccc(Cl)c(Cl)c1 show?
41%

Quick one: Maximal Decrease (1 − compound/control) * 100% for Cl.N[C@]1(C(=O)O)[C@@H]2[C@@H](C(=O)O)[C@@H]2[C@H](Sc2ncc[nH]2)[C@H]1OCc1ccc(Cl)c(Cl)c1 ?
41%

Fill in the blank: the reported Maximal Decrease (1 − compound/control) * 100% of N[C@]1(C(=O)O)[C@@H]2[C@@H](C(=O)O)[C@@H]2[C@H](Sc2nccs2)[C@H]1OCc1ccc(Cl)c(Cl)c1 is ____.
47%

Requested read-out: Maximal Decrease (1 − compound/control) * 100%. Entry: N[C@]1(C(=O)O)[C@@H]2[C@@H](C(=O)O)[C@@H]2[C@H](Sc2nc[nH]n2)[C@H]1OCc1ccc(Cl)c(Cl)c1
62%

Suppose we examine the compound CC(=O)N[C@H]1[C@H]2[C@H](C(=O)O)[C@H]2[C@](N)(C(=O)O)[C@@H]1OCc1ccc(Cl)c(Cl)c1 ; what Maximal Decrease (1 − compound/control) * 100% value has been reported?
38%

Now examine the next entry.
Form field: reported Maximal Decrease (1 − compound/control) * 100% of N[C@]1(C(=O)O)[C@@H]2[C@@H](C(=O)O)[C@@H]2[C@H](O)[C@H]1OCc1ccc(Cl)c(Cl)c1
59%

---

Test system: male NIH-Swiss mice
Experiment: Forced-swim test in mice (mFST)
Format: in vivo, mouse
Settings: i.p.; immobility time
Procedure: Forced-Swim Test in Mice (mFST) mFST is an established in vivo assay for antidepressant activity (Li et al. J Pharmacol Exp Ther. 319(1):254-9, 2006.). […] The duration of immobility during the last 4 min. of the 6 min. period of the test was scored. A mouse is recorded as immobile when floating motionless or making only those movements necessary to keep its head above water.
Listed molecules paired with reported Maximal Decrease (1 − compound/control) * 100%
Respond with the bare value in %.

Returns the measured Maximal Decrease (1 − compound/control) * 100% for the input molecule. Input: Cl.Cn1ncnc1S[C@H]1[C@H]2[C@H](C(=O)O)[C@H]2[C@](N)(C(=O)O)[C@@H]1OCc1ccc(Cl)c(Cl)c1
47

// lookup Maximal Decrease (1 − compound/control) * 100% for COC(=O)N[C@H]1[C@H]2[C@H](C(=O)O)[C@H]2[C@](N)(C(=O)O)[C@@H]1OCc1ccc(Cl)c(Cl)c1
56

Find the recorded Maximal Decrease (1 − compound/control) * 100% belonging to Cl.Cn1cnc(S[C@H]2[C@H]3[C@H](C(=O)O)[C@H]3[C@](N)(C(=O)O)[C@@H]2OCc2ccc(Cl)c(Cl)c2)n1 and report it.
18

---

Below, each entry is listed with its recorded IC50.
target: human mGlu3 receptors (Homo sapiens, UniProt Q14832); assay: mGlu3 receptor cAMP antagonist assay; conditions: reversal of DCG IV (EC90) inhibition of forskolin-stimulated cAMP; AV12 cells
Sequence (Q14832 23-879): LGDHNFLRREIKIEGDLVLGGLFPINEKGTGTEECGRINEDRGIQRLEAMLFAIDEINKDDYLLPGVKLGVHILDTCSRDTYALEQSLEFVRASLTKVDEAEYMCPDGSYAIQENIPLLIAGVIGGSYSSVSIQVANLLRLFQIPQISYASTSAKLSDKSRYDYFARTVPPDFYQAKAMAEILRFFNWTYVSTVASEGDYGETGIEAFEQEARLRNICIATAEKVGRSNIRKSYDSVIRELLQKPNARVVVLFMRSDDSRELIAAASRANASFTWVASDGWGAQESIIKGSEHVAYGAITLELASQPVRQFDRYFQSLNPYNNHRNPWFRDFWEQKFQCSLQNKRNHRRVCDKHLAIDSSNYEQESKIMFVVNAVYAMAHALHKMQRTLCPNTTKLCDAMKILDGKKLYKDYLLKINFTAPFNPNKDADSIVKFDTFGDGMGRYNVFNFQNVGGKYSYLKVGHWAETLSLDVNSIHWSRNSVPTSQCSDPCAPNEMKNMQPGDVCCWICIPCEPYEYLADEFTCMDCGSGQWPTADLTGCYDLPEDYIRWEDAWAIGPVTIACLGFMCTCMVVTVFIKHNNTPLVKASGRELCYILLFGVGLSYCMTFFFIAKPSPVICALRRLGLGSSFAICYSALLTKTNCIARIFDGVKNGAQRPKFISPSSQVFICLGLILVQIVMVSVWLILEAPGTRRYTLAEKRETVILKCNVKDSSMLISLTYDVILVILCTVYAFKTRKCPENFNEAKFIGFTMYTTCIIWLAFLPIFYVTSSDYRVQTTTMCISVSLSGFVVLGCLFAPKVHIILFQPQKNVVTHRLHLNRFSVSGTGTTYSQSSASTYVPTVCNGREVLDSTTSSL
Quick note: give the figure in µM, leave out the unit.

Given the entry N[C@]1(C(=O)O)[C@@H]2[C@@H](C(=O)O)[C@@H]2[C@H](Sc2nc[nH]n2)[C@H]1OCc1ccc(Cl)c(Cl)c1 , report its measured IC50.
0.0078

Consider the compound shown here: CC(=O)N[C@H]1[C@H]2[C@H](C(=O)O)[C@H]2[C@](N)(C(=O)O)[C@@H]1OCc1ccc(Cl)c(Cl)c1 What is its recorded IC50?
0.0082

Recorded IC50 of Cl.N[C@]1(C(=O)O)[C@@H]2[C@@H](C(=O)O)[C@@H]2[C@H](Sc2ncc[nH]2)[C@H]1OCc1ccc(Cl)c(Cl)c1 [Example 8, hydrochloride] , please.
0.026

***
// query IC50 value for entry Cl.Cn1ncnc1S[C@H]1[C@H]2[C@H](C(=O)O)[C@H]2[C@](N)(C(=O)O)[C@@H]1OCc1ccc(Cl)c(Cl)c1 [Example 6, hydrochloride]
0.0139

Fill in: IC50 of Cl.Cn1cnc(S[C@H]2[C@H]3[C@H](C(=O)O)[C@H]3[C@](N)(C(=O)O)[C@@H]2OCc2ccc(Cl)c(Cl)c2)n1 [Example 7, hydrochloride] is ___
0.0348

Any idea what its IC50 is? The compound is N[C@]1(C(=O)O)[C@@H]2[C@@H](C(=O)O)[C@@H]2[C@H](Sc2nccs2)[C@H]1OCc1ccc(Cl)c(Cl)c1
0.0108

---

tested on: male NIH-Swiss mice; test: Forced-swim test in mice (mFST); format: in vivo, mouse; conditions: Mus musculus, ip; immobility in last 4 min of 6 min
ED60: recorded values
Write the value in mg/kg as a bare number.

I would be grateful if you could share the reported ED60 for COC(=O)N[C@H]1[C@H]2[C@H](C(=O)O)[C@H]2[C@](N)(C(=O)O)[C@@H]1OCc1ccc(Cl)c(Cl)c1 .
7.45

I'd like to know its ED60. The molecule in question is Cl.N[C@]1(C(=O)O)[C@@H]2[C@@H](C(=O)O)[C@@H]2[C@H](Sc2ncc[nH]2)[C@H]1OCc1ccc(Cl)c(Cl)c1
9.1

Sample Cl.N[C@]1(C(=O)O)[C@@H]2[C@@H](C(=O)O)[C@@H]2[C@H](NC(=O)CO)[C@H]1OCc1ccc(Cl)c(Cl)c1 — what was its ED60?
9.68

---

target: human mGlu3 receptors (Homo sapiens, UniProt Q14832); assay: mGlu3 receptor cAMP antagonist assay; conditions: reversal of DCG IV (EC90) inhibition of forskolin-stimulated cAMP; AV12 cells
Reported IC50 values follow for various compounds

Reference set, count: 2
Entry Cl.N[C@]1(C(=O)O)[C@@H]2[C@@H](C(=O)O)[C@@H]2[C@H](NC(=O)CO)[C@H]1OCc1ccc(Cl)c(Cl)c1 [Example 9, hydrochloride] : reported IC50 = ?
4.4 nM

Item N[C@]1(C(=O)O)[C@@H]2[C@@H](C(=O)O)[C@@H]2[C@H](O)[C@H]1OCc1ccc(Cl)c(Cl)c1 [Example 1] has what recorded IC50?
27.2 nM

Here is another compound to look at.
Which IC50 value is on record for COC(=O)N[C@H]1[C@H]2[C@H](C(=O)O)[C@H]2[C@](N)(C(=O)O)[C@@H]1OCc1ccc(Cl)c(Cl)c1 [Example 5] ?
9.5 nM

Source: patent US9056844B2
